target: β-secretase(BACE) (Homo sapiens); construct: purchased Panvera; assay: BACE % Inhibition Assay ((Aedens)-[…]-(Dabcyl K-amide) substrate); format: biochemical; details: 3 μM test compound; % error ±10%; read-out: % Inhibition
Sequence (P56817 46-501): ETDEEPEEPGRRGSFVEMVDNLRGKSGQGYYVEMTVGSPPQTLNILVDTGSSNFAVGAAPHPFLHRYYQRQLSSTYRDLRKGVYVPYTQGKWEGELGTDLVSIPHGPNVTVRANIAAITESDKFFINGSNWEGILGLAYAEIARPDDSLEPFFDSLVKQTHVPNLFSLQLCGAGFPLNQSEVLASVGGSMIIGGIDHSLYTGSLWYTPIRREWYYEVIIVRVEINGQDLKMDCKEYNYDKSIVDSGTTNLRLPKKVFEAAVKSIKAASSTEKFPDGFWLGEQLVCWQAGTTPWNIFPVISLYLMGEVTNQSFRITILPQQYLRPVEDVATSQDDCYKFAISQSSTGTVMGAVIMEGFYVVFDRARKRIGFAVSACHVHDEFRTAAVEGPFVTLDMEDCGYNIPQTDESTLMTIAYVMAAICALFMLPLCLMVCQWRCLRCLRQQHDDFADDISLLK
MEASUREMENT_LABEL: inhibition at 3 µM (%)
# value in %; strip the unit string

A selection of reference data follows.
NC1=Nc2ccc(Oc3ccccc3)cc2CN1CCNC(=O)C1CCCC1 [Compound 112] = 88
CC(C)(C)OC(=O)NCCCCN1Cc2cc(Oc3ccccc3)ccc2N=C1N [Compound 101] = 45
CC(C)CC(=O)NCC(C1CCCCC1)N1Cc2cc(Oc3ccccc3)ccc2N=C1N (stereo not shown) [Compound 389] = 120
NC1=Nc2ccc(Oc3ccccc3)cc2CN1C(CCNC(=O)C1CCCCC1)C1CCCCC1 (stereo not shown) [Compound 391] = 115

Prompt: # query: inhibition at 3 µM of entry NC1=Nc2ccc(Oc3ccccc3)cc2CN1CCCNC(=O)C1CCCCC1 [Compound 108]
Response: 73

Prompt: Need inhibition at 3 µM, item NC1=Nc2ccc(C(=O)c3ccccc3)cc2CN1CCCCC(=O)N(C1CCCCC1)C1CCCCC1 [Compound 46]
Response: 66

Prompt: Which inhibition at 3 µM value belongs to CN(C(=O)CCCCN1Cc2cc(C(=O)c3ccccc3)ccc2N=C1N)C1CCCCC1 [Compound 27] ?
Response: 63

Prompt: # query: inhibition at 3 µM of entry NC1=Nc2ccc(Oc3ccccc3)cc2CN1C(CNC(=O)C1CCCCC1)c1ccccc1 (stereo not shown) [Compound 342]
Response: 119
